protocol_summary: soluble on expression in E. coli; label from the status in PepcDB or PDB records

[
  {
    "polymer_sequence": "MKGRWAKYVATGVMLAMLAACSSKPTDRGQQYKDGKFTQPFSLVNQPDAVGAPINAGDFAEQVDQIRSASPRLYTNQSNVYNAVQNWLRSGGDTRTMRQFGIDAWQMEGTDNYGNVQFTGYYTPVVQARHTRQGAFQYPIYSMPPKRGRLPSRAQIYAGALSDKYILAWSNSLMDNFIMDVQGSGYIDFGDGSPLNFFSYAGKNGWPYRSIGKVLIDRGEVKKEDMSMQAIREWGEKHSEAEVRELLEQNPSFVFFKPQSFAPVKGASAVPLIGRASVASDRSIIPPGTTLLAEVPLLDNNGKFSGQYELRLMVALDVGGAIKGQHFDIYQGIGPDAGHRAGWYNHYGRVWVLKSAPGAGNVFSG",
    "soluble on expression in E. coli": "soluble"
  },
  {
    "polymer_sequence": "GMQGIAFQDAYPDDLSHCYGCGRNNEQGHQLKSYWRGEQTIAHFMPKPFHTAIPGFVYGGLIASLIDCHGTGSASAAAQRALEQAGEQLDEPPRFVTAALNIDYLAPTPMGVELELVGEIKEVKPRKVVVEIALSADGKLCARGHMVAVKMPETMAATSA",
    "soluble on expression in E. coli": "soluble"
  }
]

----------
protocol_summary: soluble on expression in E. coli; label from the status in PepcDB or PDB records

[
  {
    "polymer_sequence": "MSSSPSLPSSASVPAAFDRAPVSGLPDNAIEIDALRKVYGGGKVALESLSLAIPRGSFFGLLGPNGAGKSTLINIMAGLVRKTSGRVRIWGNDIDTDERAARCAIGIVPQELSFDPFFTPREMLDVQAGLYGVPKAERRTLEILRAVGLEDKADAYSRTLSGGMRRRLLVAKAMVHSPPILVLDEPTAGVDIELRQQLWAYVRDLNARGTTVLLTTHYLEEAEELCDRIAIIDHGKVVVSEPTTTLLGRLDNKSLTLRLAQPLDAPPPALAALGAELRDPYHLVITYHPSSLPMARILDAARAGGLTIADLTTREADLEDVFLRLTSSHHRAQEIGLEHHHHHH",
    "soluble on expression in E. coli": "soluble"
  },
  {
    "polymer_sequence": "MSLTELYAKSDLEKIKETLPGWQLDSFNYLNEKIGDKENKFPCIPGRQAFLSDQLRIAFVGDPRNPETAKELAPLLTRYGTISRETGKYASLTVIFHTPEELLTDYKIEDYESLFWQLLNSLSMEDPADWPDDIPENPDNFQWEYCFNGEPYFVLCATPAHSKRKSRSFPYFMLTFQPRWVFEDLNDTTAFGRNMSKQIRKRLEAYDEVPIHPHLGWYGKKDNLEWKQYFLRDDENQVSQCPFMKMKNLFKKERSDEGHHHHHH",
    "soluble on expression in E. coli": "soluble"
  }
]

----------
protocol_summary: soluble on expression in E. coli; label from the status in PepcDB or PDB records

[
  {
    "polymer_sequence": "MSKTRIAFVGAGNMAASLIGGLRAQGVEASLICASAPGAETRERISTEHGIEVFADNAEAVKGADVVVLAVKPQMMKSVCQALKASLEAHQLIVSVAAGITCASLTQWLGDQPVVRCMPNTPSLLRQGASGLYATDKVSPTQREQAEQLLSAVGVAVWVEQEKHMDAVTAVSGSGPAYFFLMMEAMTAAGVKLGLPEDIAKKLTLQTALGSALIATGSNVDAGELRRRVASPGGTTEAAIKAFQAGGFEALVETALTAADHRAAELAEQLGKLEHHHHHH",
    "soluble on expression in E. coli": "not soluble"
  },
  {
    "polymer_sequence": "MLNPDELVAIDIHTHAEEPCGCHADDGYDDFQARMAEYFGSPNKHPPTVPETAAYYRAKKIAAVIFPVDAERETGFRRYNNDEMIEITRQNSDVLIPFASIDPHKGKIGVREARRLIADYGIKGFKFHPTMQGFYANDRLAYPLYEAIQEGGAIALFHTGQTGVGSGMPGGMGMRLKYSNPMYMDDVAADFPDMKIVLAHPSFPWQEEALSVATHKPNVYIDLSGWSPKYFPPILVRYINSILQDKMLFGSDWPVITPDRWLSDFAKLEIREEVRAKVLKQNARKLLGIAAALEHHHHHH",
    "soluble on expression in E. coli": "not soluble"
  },
  {
    "polymer_sequence": "MLSFCPSCNNMLLITSGDSGVYTLACRSCPYEFPIEGIEIYDRKKLPRKEVDDVLGGGWDNVDQTKTQCPNYDTCGGESAYFFQLQIRSADEPMTTFYKCVNCGHRWKEN",
    "soluble on expression in E. coli": "not soluble"
  }
]
